- measuredTarget: pre-existing anti-scFv903 antibodies in human serum H125 (human)
- protocolDescription: competition ADA bridging ELISA, 100 mcg/ml competitor
observedProperty: % reduction in OD (%)
Reply with just the number (in %).

Consider the following illustrative entries.
- scFv 903 (scFv) scFv: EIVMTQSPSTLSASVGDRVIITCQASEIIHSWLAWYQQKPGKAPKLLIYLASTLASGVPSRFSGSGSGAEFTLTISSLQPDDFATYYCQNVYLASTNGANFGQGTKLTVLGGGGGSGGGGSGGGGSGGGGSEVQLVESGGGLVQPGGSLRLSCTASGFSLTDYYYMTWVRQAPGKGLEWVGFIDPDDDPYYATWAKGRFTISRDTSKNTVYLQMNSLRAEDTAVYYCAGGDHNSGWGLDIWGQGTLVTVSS: -97.9
- scFv105 (scFv) scFv: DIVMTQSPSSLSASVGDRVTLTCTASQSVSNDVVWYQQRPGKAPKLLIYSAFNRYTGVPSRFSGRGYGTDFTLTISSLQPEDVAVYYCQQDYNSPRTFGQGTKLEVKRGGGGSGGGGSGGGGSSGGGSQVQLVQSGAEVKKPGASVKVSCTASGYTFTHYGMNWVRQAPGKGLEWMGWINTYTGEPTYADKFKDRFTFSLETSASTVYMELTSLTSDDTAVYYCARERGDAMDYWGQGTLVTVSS: -55.5
- scFv 791 (scFv) scFv: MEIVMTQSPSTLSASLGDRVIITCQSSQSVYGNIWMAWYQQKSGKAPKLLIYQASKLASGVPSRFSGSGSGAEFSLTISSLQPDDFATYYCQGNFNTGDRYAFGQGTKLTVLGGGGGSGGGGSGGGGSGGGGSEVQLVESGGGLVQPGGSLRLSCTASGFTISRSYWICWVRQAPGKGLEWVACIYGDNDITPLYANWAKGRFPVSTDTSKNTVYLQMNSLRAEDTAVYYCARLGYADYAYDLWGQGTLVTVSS: -97.4

As a next step, examine the binder that follows.
Query: Specify reported % reduction in OD for the binder shown: scFv 961 (scFv) scFv: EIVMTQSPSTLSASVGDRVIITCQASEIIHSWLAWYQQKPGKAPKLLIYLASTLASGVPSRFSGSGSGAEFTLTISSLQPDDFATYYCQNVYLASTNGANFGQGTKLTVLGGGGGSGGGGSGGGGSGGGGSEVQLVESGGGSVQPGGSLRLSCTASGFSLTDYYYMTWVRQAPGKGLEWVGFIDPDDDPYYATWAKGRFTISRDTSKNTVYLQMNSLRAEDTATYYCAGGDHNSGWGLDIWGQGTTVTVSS
Result: 2.7
